# experiment description: HILIC, Waters Atlantis Premier BEH Z-HILIC, 100 × 2.1 mm, 1.7 µm, 40 °C, 0.15 mL/min, estimated dead time 1.5 min; A: water + 20 mM ammonium carbonate + 5 µM medronic acid; B: 10% water + 90% acetonitrile + 2 mM ammonium carbonate + 0.5 µM medronic acid; gradient (min/%B) 0/95 18/60 18.1/20 21.5/20 22/95 23.5/95 25.5/95
# test context: stereoisomer not certain
Listed here are molecules together with their documented LC retention time.
reported metric: LC retention time (min)

[[record]]
molecule = "CCC(C)C(N)C(=O)O (stereo not given)"
recorded_number = 6.62

[[record]]
molecule = "CC(C)(COP(=O)(O)OP(=O)(O)OCC1OC(n2cnc3c(N)ncnc32)C(O)C1OP(=O)(O)O)C(O)C(=O)NCCC(=O)NCCS (stereo not given)"
recorded_number = 12.9

[[record]]
molecule = "C=C(OP(=O)(O)O)C(=O)O"
recorded_number = 14.4

[[record]]
molecule = "O=P(O)(O)OCC(O)CO (stereo not given) [Glycerol-3-phosphate]"
recorded_number = 10.9

[[record]]
molecule = "O=C(CO)C(O)C(O)C(O)COP(=O)(O)O (stereo not given) [Fructose 6-phosphate]"
recorded_number = 12.2


###

# experiment description: HILIC, Waters Atlantis Premier BEH Z-HILIC, 100 × 2.1 mm, 1.7 µm, 40 °C, 0.15 mL/min, estimated dead time 1.5 min; A: water + 20 mM ammonium carbonate + 5 µM medronic acid; B: 10% water + 90% acetonitrile + 2 mM ammonium carbonate + 0.5 µM medronic acid; gradient (min/%B) 0/95 18/60 18.1/20 21.5/20 22/95 23.5/95 25.5/95
# test context: stereoisomer not certain
reported metric: LC retention time (min)

[[record]]
compound = "NC(=O)C1=CN(C2OC(COP(=O)(O)OP(=O)(O)OCC3OC(n4cnc5c(N)ncnc54)C(OP(=O)(O)O)C3O)C(O)C2O)C=CC1 (stereo unspecified) [NADPH]"
unit_name = "min"
recorded_number = 15

[[record]]
compound = "NC(=O)C1=CN(C2OC(COP(=O)(O)OP(=O)(O)OCC3OC(n4cnc5c(N)ncnc54)C(O)C3O)C(O)C2O)C=CC1 (stereo unspecified) [NADH]"
unit_name = "min"
recorded_number = 9.07

[[record]]
compound = "CC(=O)SCCNC(=O)CCNC(=O)C(O)C(C)(C)COP(=O)(O)OP(=O)(O)OCC1OC(n2cnc3c(N)ncnc32)C(O)C1OP(=O)(O)O (stereo unspecified) [Acetyl-CoA]"
unit_name = "min"
recorded_number = 10.9

[[record]]
compound = "O=C(O)CC(O)(CC(=O)O)C(=O)O [Citric acid]"
unit_name = "min"
recorded_number = 14.8

[[record]]
compound = "O=C(O)CCC(=O)C(=O)O [2-Oxoglutaric acid]"
unit_name = "min"
recorded_number = 9.44

[[record]]
compound = "CC(=O)NC1C(OP(=O)(O)OP(=O)(O)OCC2OC(n3ccc(=O)[nH]c3=O)C(O)C2O)OC(CO)C(O)C1O (stereo unspecified) [UDP-GlcNAc]"
unit_name = "min"
recorded_number = 10.5

